Test system: CAKI-1 renal
test description: NCI tumour cell line growth inhibition, 48 h
measurement label: TGI (µM)
Hi! Could you send only the number? It should be in µM, unit omitted.

# value lookup — system CAKI-1 renal, readout TGI, item CC1=C(C(=O)Nc2cccc(Cl)c2)C(c2ccccc2F)C(C(=O)Nc2cccc(Cl)c2)=C(C)N1
35.9

Record: COc1ccccc1C1Nn2c(nc3ccccc3c2=O)N1c1ccc(C)cc1 (configuration not stated)
24.1

Try this compound too: Nc1ccccc1C#C/C=C\C#Cc1ccccc1
8.35

Similarly, CCC[n+]1cc2cc(OC)c(OC)cc2c2c1-c1cc3c(cc1C2)OCO3 ?
44.2

----------
Test system: EKVX NSCLC
test description: NCI tumour cell line growth inhibition, 48 h
measurement label: TGI

Please look up its TGI: COc1ccc(/C=C\c2cc(OC)c(O[Si](C)(C)C(C)(C)C)c(OC)c2)cc1
> 100 µM

Next: CC1=NN(c2nc(N)nc(-c3sccc3N)n2)C(C)(C)C1
> 100 µM

Then what about the compound O=c1c(Cc2ccc(Cl)cc2)nnc2sc(-c3ccc(-c4ccc(F)c(Cl)c4)o3)nn12 ?
> 100 µM

Queued: CCP(=O)(OC)C1=CCN(C(=O)OCC[Si](C)(C)C)CC1 (stereo unspecified)
> 100 µM

Same read-out for C[C@]12CCC(=O)[C@@H](CCC3=CC(=O)C=CC3=O)[C@@H]1CCC2=O ?
47.5 µM

Do the same for CC(C)C(=O)C(C)(C)CCc1ccccn1 please
> 100 µM

And what about the compound OCCNc1ncnc2c1ncn2Cc1cccc(COc2cccc(OCc3cccc(Cn4cnc5c(NCCO)ncnc54)c3)c2)c1 ?
29 µM

And for COc1cc(-c2n/c(=C\c3c(O)[nH]c4ccc(Cl)cc34)cc3c2=Nc2ccccc2-3)ccc1F ?
27.2 µM

Same thing, different compound: Cc1cc(C)c(S(=O)(=O)N(CCCN)OCCCON(CCCN)S(=O)(=O)c2c(C)cc(C)cc2C)c(C)c1
19.4 µM

Queued: O=c1[nH]c2nc3ccccc3nc2[nH]c1=O
> 100 µM

Follow-up item: O=C1C=CC(=O)c2c(O)c(N3CCC[C@H]3CO)c(Cl)c(O)c21
> 10 µM

Now consider NC(=O)c1csc(C2(O)COC(CO)C2O)n1 (stereo unspecified) and answer again.
> 100 µM

Moving on to the next compound: O=P(O)(O)c1ccccc1Oc1ccccc1
> 100 µM

Check Cc1sc2nc3c4ccccc4c(NCCCN(C)C)nn3c(=O)c2c1C too.
35.8 µM

Check CCOC(=O)/C=C/C1=C(c2cccs2)c2ccccc2CC1 too.
86.7 µM

Proceed to CCc1c(CNc2ccc(C(=O)NC(CC(=O)O)C(=O)O)cc2)ccc2nc(N)nc(N)c12 (stereo unspecified)
> 1000 µM

Now consider C=C1C(OC2O[C@@H]3O[C@@]4(C)CC[C@H]5[C@H](C)CC[C@@H](C2=C)[C@@]35O4)O[C@@H]2O[C@@]3(C)CC[C@H]4[C@H](C)CC[C@@H]1[C@@]24O3 (stereo partly specified) .
> 50 µM

Could you do the same for O=C1N=C2SC(=S)NC(=S)N2NC12c1ccccc1-c1ccccc12 , please?
> 10 µM

Please do the same for O=C1C=CC=C/C1=C1\N=C(c2ccccc2OCC(=O)c2ccccc2)SS1 as well.
> 100 µM

One more compound: COC(=O)C1(CCCCCBr)CCCCCCCCCCC1=O (stereo unspecified)
> 100 µM

Thanks! And Cc1ccc(-c2cc(-c3ccccc3)c(C#N)c(=O)n2C2OC(CO)C(O)C(O)C2O)cc1 (stereo unspecified) ?
> 100 µM

Next entry: C/C(CCc1ccccc1)=N\NC(N)=S
> 100 µM

Likewise for CC1C(=O)OCC2=CCN3CCC(OC(=O)C(C)C1(C)O)C23 (stereo unspecified) ?
> 100 µM

Try the compound CC(=O)OCC(OC(C)=O)C(OC(C)=O)C(OC(C)=O)C(=O)CNn1c(-c2ccccc2Cl)nc2ccccc2c1=O (stereo unspecified)
> 100 µM

# repeat for Cn1c2c(c3ccc(Cl)c(Cl)c31)C(C#N)C1(CCNCC1)NC2=O (stereo unspecified)
9.84 µM

Next entry: COC(=O)Cc1ccc2c(cnn2-c2ccccc2)c1OC
> 10 µM
